# credit: paper PMC10692717

So I've got a bunch of sequences here, and I need their Kd values.
Experimental system: peptide 33 (bacteriophage P4 (designed variant)) (UniProt P05460)
Assay method text: EMSA
Run conditions: EMSA/competition: 10 mM Tris-HCl pH 8.0, 250 mM NaCl, 37 C, 10 min, 10 nM labeled nucleic acid, fluorescence: 10 mM Tris-Cl pH 8, 500 mM NaCl, 20-37 C
One number for each entry, in nM.

For each of the sequences below, state Kd.
1. TGATCCTCCTCCTCCTGATCCTCCTCCTCCTGATCCTCCTCCTCCTGAGCGTTTCATCATTTCGAAGAAATCGTC [75-mer ssDNA (RS2230)]
2. ATCTTCTCTCATCCGCCAAAACAGCC [26-mer ssDNA (RS1816)]

1: 740; 2: 2000
